Target or system: human chemokine receptor 2 isoform B (Homo sapiens)
Sequence (P41597 1-360 isoform P41597-2): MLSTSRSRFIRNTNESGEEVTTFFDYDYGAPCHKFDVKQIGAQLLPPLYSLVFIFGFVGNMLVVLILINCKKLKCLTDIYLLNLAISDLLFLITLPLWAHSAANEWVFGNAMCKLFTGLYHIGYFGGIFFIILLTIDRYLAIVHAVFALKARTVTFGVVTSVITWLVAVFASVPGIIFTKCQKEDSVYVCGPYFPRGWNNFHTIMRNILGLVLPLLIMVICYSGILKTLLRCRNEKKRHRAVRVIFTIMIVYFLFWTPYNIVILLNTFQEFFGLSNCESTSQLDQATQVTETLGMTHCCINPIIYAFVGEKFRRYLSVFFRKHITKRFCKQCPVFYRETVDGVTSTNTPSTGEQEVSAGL
Assay: Calcium mobilization assay (FLIPR, antagonist activity against MCP-1)
Condition parameters: Ca mobilisation assay, CHOK1-CCR2B-A5 cells, inhibition of calcium increase induced by 20 nM MCP-1
Each record here notes measured IC50.
Reported endpoint: IC50 (nM)

In [3]: df
Out[3]:
                                    molecule                          target_or_system  test_result
 0  C[C@H]1C(=O)N(CC[C@H](O)C(=O)N2CCC3(CC3)[C@H](O)C2)CCN1C(=O)Nc1ccc(C(F)(F)F)c(Cl)c1  human chemokine receptor 2 isoform B (Homo sapiens)          188
 1  C[C@H]1C(=O)N(CCCC(=O)N2CCCC(O)C2)CCN1C(=O)Nc1cccc(Cl)c1 (mixture of isomers)  human chemokine receptor 2 isoform B (Homo sapiens)         3200
 2  C[C@H]1C(=O)N(CCCC(=O)N2CCC3(CC3)[C@H](O)C2)CCN1C(=O)Nc1cccc(OC(F)(F)F)c1  human chemokine receptor 2 isoform B (Homo sapiens)           51
 3  C[C@H]1C(=O)N(CCCC(=O)N2CCC3(CC3)[C@H](O)C2)CCN1c1ccc(Cl)c(OC(F)(F)F)c1  human chemokine receptor 2 isoform B (Homo sapiens)         41.7
 4  C[C@H]1C(=O)N(C[C@H](O)CC(=O)N2CCC3(CC3)[C@H](O)C2)CCN1C(=O)Nc1ccc(C(F)(F)F)c(Cl)c1  human chemokine receptor 2 isoform B (Homo sapiens)            4
 5  C[C@H]1C(=O)N(CCCC(=O)N2CCC(CO)CC2)CCN1C(=O)Nc1cccc(Cl)c1  human chemokine receptor 2 isoform B (Homo sapiens)         4650
 6  O=C1CCN(c2ccc(OC(F)(F)F)c(Cl)c2)CCN1CCCC(=O)N1CCC2(CC2)[C@H](O)C1  human chemokine receptor 2 isoform B (Homo sapiens)          167
 7  C[C@H]1C(=O)N([C@@H](CCC(=O)N2CCC3(CC3)[C@H](O)C2)C(N)=O)CCN1C(=O)Nc1ccc(C(F)(F)F)c(Cl)c1  human chemokine receptor 2 isoform B (Homo sapiens)          500
 8  COC(=O)[C@H](CCC(=O)N1CCC2(CC2)[C@H](O)C1)N1CCN(C(=O)Nc2ccc(C(F)(F)F)c(Cl)c2)[C@@H](C)C1=O  human chemokine receptor 2 isoform B (Homo sapiens)          738
 9  C[C@H]1C(=O)N(CCCC(=O)N2CCC(C)(O)CC2)CCN1C(=O)Nc1cccc(Cl)c1  human chemokine receptor 2 isoform B (Homo sapiens)         3410
10  C[C@H]1C(=O)N(CCCC(=O)N2CCC3(CCCO3)CC2)CCN1C(=O)Nc1cccc(Cl)c1  human chemokine receptor 2 isoform B (Homo sapiens)         4070
11  C[C@H]1C(=O)N(CCCC(=O)N2CCC3(CC3)[C@H](O)C2)CCN1c1ccc(Cl)c(Cl)c1  human chemokine receptor 2 isoform B (Homo sapiens)         23.2
12  C[C@H]1C(=O)N([C@H](CO)CCC(=O)N2CCC3(CC3)[C@H](O)C2)CCN1C(=O)Nc1ccc(OC(F)(F)F)c(Cl)c1  human chemokine receptor 2 isoform B (Homo sapiens)          1.8
13  O=C(/C=C/c1ccc(Cl)c(Cl)c1)N1CCC(=O)N(CCC(=O)N2CCCC(CO)C2)CC1 (racemic)  human chemokine receptor 2 isoform B (Homo sapiens)          758
14  C[C@H]1C(=O)N(C[C@@H](O)CC(=O)N2CCC3(CC3)[C@H](O)C2)CCN1C(=O)Nc1ccc(C(F)(F)F)c(Cl)c1  human chemokine receptor 2 isoform B (Homo sapiens)          8.2
15  O=C(/C=C/c1ccc(Cl)c(Cl)c1)N1CCC(=O)N(CCC(=O)N2CCC(CO)CC2)CC1  human chemokine receptor 2 isoform B (Homo sapiens)          481

###

Target or system: human chemokine receptor 2 isoform B (Homo sapiens)
Assay: Calcium mobilization assay (FLIPR, antagonist activity against MCP-1)
Condition parameters: Ca mobilisation assay, CHOK1-CCR2B-A5 cells, inhibition of calcium increase induced by 20 nM MCP-1
Each record here notes measured IC50.
Reported endpoint: IC50 (nM)

In [3]: df
Out[3]:
                                   compound                          target_or_system  reading_unit  test_result
0  C[C@H]1C(=O)N(CCC(C)(C)C(=O)N2CCC3(CC3)[C@H](O)C2)CCN1C(=O)Nc1ccc(OC(F)(F)F)c(Cl)c1 [Example 51]  human chemokine receptor 2 isoform B (Homo sapiens)            nM          750
1  O=C(CC[C@@H](CO)N1CCN(c2ccc(C(F)(F)F)c(Cl)c2)CCC1=O)N1CCC2(CC2)[C@H](O)C1 [Example 124]  human chemokine receptor 2 isoform B (Homo sapiens)            nM            8
2  C[C@H]1C(=O)N(CCC(=O)N2CCC3(CC3)[C@H](O)C2)CCN1C(=O)/C=C/c1ccc(F)c(Cl)c1 [Example 64]  human chemokine receptor 2 isoform B (Homo sapiens)            nM         1240
3  C[C@H]1C[C@H](O)CN(C(=O)CCCN2CCN(C(=O)Nc3cccc(Cl)c3)[C@@H](C)C2=O)C1 [Example 113]  human chemokine receptor 2 isoform B (Homo sapiens)            nM         1420

###

Target or system: human chemokine receptor 2 isoform B (Homo sapiens, UniProt P41597)
Assay: Calcium mobilization assay (FLIPR, antagonist activity against MCP-1)
Condition parameters: Ca mobilisation assay, CHOK1-CCR2B-A5 cells, inhibition of calcium increase induced by 20 nM MCP-1
pIC50: −log10 of the molar value.
Reported endpoint: pIC50

In [3]: df
Out[3]:
                                   compound  test_result
0  C[C@H]1C(=O)N([C@H](CO)CCC(=O)N2CCC3(CC3)[C@H](O)C2)CCN1C(=O)Nc1ccc(C(F)(F)F)c(Cl)c1         8.37
1  O=C1CCCN(C(=O)CCN2CCN(C(=O)/C=C/c3ccc(Cl)c(Cl)c3)CCC2=O)C1         5.74
2  C[C@H]1C(=O)N(CCC(F)C(=O)N2CCC3(CC3)[C@H](O)C2)CCN1C(=O)Nc1ccc(C(F)(F)F)c(Cl)c1 (stereo partly shown) [Example 136]         8.33
3  COCC(CC(=O)N1CCC2(CC2)[C@H](O)C1)N1CCN(C(=O)/C=C/c2cccc(Cl)c2)CCC1=O (stereo partly shown)         6.11

###

Each record here notes measured IC50.
Target or system: human chemokine receptor 2 isoform B (Homo sapiens)
Sequence (P41597 1-360 isoform P41597-2): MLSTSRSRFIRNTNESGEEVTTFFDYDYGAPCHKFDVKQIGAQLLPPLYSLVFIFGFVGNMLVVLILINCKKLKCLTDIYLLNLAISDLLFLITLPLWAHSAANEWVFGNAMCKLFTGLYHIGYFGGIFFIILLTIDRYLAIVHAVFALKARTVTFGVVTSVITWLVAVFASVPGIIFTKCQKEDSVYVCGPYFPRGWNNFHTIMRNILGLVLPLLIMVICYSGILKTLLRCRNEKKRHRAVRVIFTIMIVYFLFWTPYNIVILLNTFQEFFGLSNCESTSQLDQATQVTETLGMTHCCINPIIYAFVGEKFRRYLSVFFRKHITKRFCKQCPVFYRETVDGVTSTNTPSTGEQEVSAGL
Assay: Calcium mobilization assay (FLIPR, antagonist activity against MCP-1)
Condition parameters: Ca mobilisation assay, CHOK1-CCR2B-A5 cells, inhibition of calcium increase induced by 20 nM MCP-1
Reported endpoint: IC50 (nM)

                                   compound  reported_endpoint  test_result
0  CC1CCN(C(=O)CCN2CCN(C(=O)/C=C/c3ccc(Cl)c(Cl)c3)CCC2=O)CC1O (racemic)               IC50          681
1  COC(=O)C(CC(=O)N1CCC2(CC2)[C@H](O)C1)N1CCN(C(=O)/C=C/c2cccc(Cl)c2)CCC1=O (stereo partly shown)               IC50          708
2  C[C@H]1C[C@H](O)CN(C(=O)CCN2C[C@@H](C)N(C(=O)/C=C/c3cccc(Cl)c3)CCC2=O)C1               IC50         1290
3  C[C@H]1C(=O)N(CCC(C)(C)C(=O)N2CCC3(CC3)[C@H](O)C2)CCN1C(=O)Nc1ccc(C(F)(F)F)c(Cl)c1               IC50         1140
